- Experiment: Pharmacokinetics of free drugs in Sprague-Dawley rats
- Format: in vivo, rat
- Recorded Conditions: rat, blood; female Sprague-Dawley rats, IV bolus, dose level 0.4 mg/kg

[
  {
    "Molecule": "CN[C@H](C(=O)N[C@H](C(=O)N(C)[C@H](/C=C(\\C)C(=O)O)C(C)C)C(C)(C)C)C(C)(C)c1cccc(N)c1 [free drug (I)]",
    "C0": "15.5 ng/mL"
  },
  {
    "Molecule": "COc1cc2cc(c1Cl)N(C)C(=O)C[C@H](OC(=O)[C@H](C)N(C)C(=O)CCC(C)(C)S)[C@]1(C)O[C@H]1[C@H](C)[C@@H]1C[C@@](O)(NC(=O)O1)[C@H](OC)/C=C/C=C(/C)C2 [free drug (II)]",
    "C0": "62.5 ng/mL"
  }
]

src = patent US10596270B2
